Cited source for all entries: paper PMC12087695

# assayNotes: clinical
# details: human, in vivo, 0.05 mg, AUC0-∞, geometric mean (geometric CV), phase I: repaglinide 0.05 mg alone

{"columns": ["molecule", "unitAbbrev", "AUC(0-inf)"],
 "data": [
  ["CCOc1cc(CC(=O)N[C@@H](CC(C)C)c2ccccc2N2CCCCC2)ccc1C(=O)O [Repaglinide, repaglinide]", "ng·h/mL", 1.01]
]}

----------
# assayNotes: Plasma pharmacokinetics of cocktail index drugs and their metabolites, five-phase crossover trial;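 further: parameters derived from plasma drug levels quantified by LC–MS with internal standards after acetonitrile protein precipitation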
# details: human, plasma, oral, Cmax, geometric mean (geometric CV), phase V: gemfibrozil 600 mg b.i.d. 3 days pretreatment + full cocktail
Cmax: recorded values
readout: Cmax (ng/mL)

{"columns": ["sampleSmiles", "readout", "recordedResult"],
 "data": [
  ["Cn1c(=O)[nH]c2ncn(C)c2c1=O", "Cmax", 358],
  ["COc1ccc2nc(S(=O)(=O)Cc3ncc(C)c(OC)c3C)[nH]c2c1", "Cmax", 41.8]
]}
